These data points were gathered from PubChem BioAssay AID1240.

target: Bcl-2-like protein 10 (Homo sapiens) (UniProt Q9HD36); experiment: TR3 peptide-Bcl-B binding displacers, biochemical primary FP assay, phenotype converters (AID 1240); settings: GST-Bcl-B / FITC-TR3 peptide fluorescence polarization; stronger effect = higher value; compound at 3.75 mg/L;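 note: 0% = Bcl-B with tracer peptide and DMSO and 100% = tracer peptide lacking Bcl-B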
Sequence (Q9HD36 whole entry, looked up): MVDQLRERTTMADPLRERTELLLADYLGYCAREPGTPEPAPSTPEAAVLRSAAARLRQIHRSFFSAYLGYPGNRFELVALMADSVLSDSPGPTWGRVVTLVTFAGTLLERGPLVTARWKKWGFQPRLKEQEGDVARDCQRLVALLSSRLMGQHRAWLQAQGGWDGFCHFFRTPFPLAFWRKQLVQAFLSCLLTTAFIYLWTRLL
Among all 50,000 compounds or so, about 800 (1.6%) showed an effect of 50% or more. The sample as a whole holds a higher share of strong results than the screen did.
Listing: displacement of selected compounds
Measured Property: displacement (%)

Compound	Test System	Test Result
CCOC(=O)c1c[nH]c2cc(C(=O)OC)ccc2c1=O	Bcl-2-like protein 10 (Homo sapiens) (UniProt Q9HD36)	-19.8
CCn1cc(C(=O)NN)c(=O)c2cc(Br)ccc21	Bcl-2-like protein 10 (Homo sapiens) (UniProt Q9HD36)	20.2
COc1cc(/C=C2\C(=O)NC(=O)N(c3ccc(C)cc3)C2=O)ccc1OCc1ccc([N+](=O)[O-])cc1	Bcl-2-like protein 10 (Homo sapiens) (UniProt Q9HD36)	70
NNC(=O)COc1ccc2c(c1Br)CCCC2	Bcl-2-like protein 10 (Homo sapiens) (UniProt Q9HD36)	-25.1
Cc1cc(S(=O)(=O)N2CCCC2C(=O)O)c(C)cc1Cl (stereo not given)	Bcl-2-like protein 10 (Homo sapiens) (UniProt Q9HD36)	-5.8
COc1ccc(CN2CCN(C3CCC(c4ccccc4)CC3)CC2)c(OC)c1OC (stereo not given)	Bcl-2-like protein 10 (Homo sapiens) (UniProt Q9HD36)	-12
O=C(COc1ccc(Cl)cc1Cl)Nc1ccc2c(c1)OCO2	Bcl-2-like protein 10 (Homo sapiens) (UniProt Q9HD36)	3.3
C=CCOc1ccc(/C=C2\C(=O)NC(=O)N(c3ccc(Cl)cc3)C2=O)cc1OCC	Bcl-2-like protein 10 (Homo sapiens) (UniProt Q9HD36)	-4
COc1cc(C=C2C(=O)c3ccccc3C2=O)ccc1OCc1ccc(F)cc1	Bcl-2-like protein 10 (Homo sapiens) (UniProt Q9HD36)	88.7
COc1cc(/C=C2/C(=O)NC(=S)N(c3ccccc3)C2=O)ccc1OCc1ccc([N+](=O)[O-])cc1	Bcl-2-like protein 10 (Homo sapiens) (UniProt Q9HD36)	4

###

molecular target: Bcl-2-like protein 10 (Homo sapiens) (UniProt Q9HD36); assay: TR3 peptide-Bcl-B binding displacers, biochemical primary FP assay, phenotype converters (AID 1240); settings: GST-Bcl-B / FITC-TR3 peptide fluorescence polarization; stronger effect = higher value; compound at 3.75 mg/L;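 note: 0% = Bcl-B with tracer peptide and DMSO and 100% = tracer peptide lacking Bcl-B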
Screen size: about 50,000 compounds; about 800 (1.6%) showed an effect of 50% or more. Shown is part of a subset that was picked to be rich in strong results.
Measured Property: displacement (%)

Molecule	Test System	Measured Property	Value Unit	Test Result
COC(=O)c1ccc(NC(=O)CC2Nc3ccccc3NC2=O)cc1 (stereo unspecified)	Bcl-2-like protein 10 (Homo sapiens) (UniProt Q9HD36)	displacement	%	108
CCCCNc1cc(=O)n(C)c(=O)n1C	Bcl-2-like protein 10 (Homo sapiens) (UniProt Q9HD36)	displacement	%	6.5
CCCCCCCNc1ccc(NC(=O)c2ccccc2)c2c1C(=O)c1ccccc1C2=O	Bcl-2-like protein 10 (Homo sapiens) (UniProt Q9HD36)	displacement	%	1.5
Nc1c(Cl)cc2c(c1Oc1ccccc1)C(=O)c1ccccc1C2=O	Bcl-2-like protein 10 (Homo sapiens) (UniProt Q9HD36)	displacement	%	8.6
C=CCN1C(=O)/C(=C\c2ccc3c(c2)OCO3)C(=O)NC1=S	Bcl-2-like protein 10 (Homo sapiens) (UniProt Q9HD36)	displacement	%	4.4
O=C1c2ccccc2C(=O)c2c(NCCO)ccc(NCCO)c21	Bcl-2-like protein 10 (Homo sapiens) (UniProt Q9HD36)	displacement	%	46.4
NS(=O)(=O)c1cccc(NC(=O)c2cccs2)c1	Bcl-2-like protein 10 (Homo sapiens) (UniProt Q9HD36)	displacement	%	1.4
Cc1cc(/C=N/O)c(C)n1-c1ccc(F)cc1	Bcl-2-like protein 10 (Homo sapiens) (UniProt Q9HD36)	displacement	%	12.6
Cn1c(=O)cc2c3c(c(N4CCCC4)ccc31)C(=O)c1ccccc1-2	Bcl-2-like protein 10 (Homo sapiens) (UniProt Q9HD36)	displacement	%	38.2
CC(=O)C12CCCCC1CC1C3CC(C)[C@@]4(O)CC(O)CCC4(C)C3CCC12C (stereo partly specified)	Bcl-2-like protein 10 (Homo sapiens) (UniProt Q9HD36)	displacement	%	0
Cn1c(=O)cc(-c2ccccc2)c2ccccc21	Bcl-2-like protein 10 (Homo sapiens) (UniProt Q9HD36)	displacement	%	7.4

###

molecular target: Bcl-2-like protein 10 (Homo sapiens) (UniProt Q9HD36); experiment: TR3 peptide-Bcl-B binding displacers, biochemical primary FP assay, phenotype converters (AID 1240); settings: GST-Bcl-B / FITC-TR3 peptide fluorescence polarization; stronger effect = higher value; compound at 3.75 mg/L;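 note: 0% = Bcl-B with tracer peptide and DMSO and 100% = tracer peptide lacking Bcl-B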
Screen size: about 50,000 compounds; about 800 (1.6%) showed an effect of 50% or more. The entries come from a sample that favours strong results as a whole.
compounds and their reported displacement

Compound	displacement / %
COC(C)(C)c1cc(-c2cccc3ccccc23)nc(N)n1	0
CC1=NN(C(=O)c2ccc([N+](=O)[O-])cc2)C(O)(C(F)(F)F)C1 (stereo unspecified)	6.8
Cc1cc(C)nc(SCC(=O)NN=C2CCCCCC2)n1	3.9
O=C1C(=O)N(c2ccccc2Br)C(=O)N1c1cccc(Cl)c1	5.7
Cc1ccc(OCC(=O)Nc2cc(Cl)cc(Cl)c2)cc1	12.4
COC(=O)c1ccccc1NC(=O)CSc1nnc(-c2cccc(F)c2)n1-c1ccccc1	-1.1
COc1cc(C(=O)Nc2cccc(-c3cc4ccccc4oc3=O)c2)cc(OC)c1OC	3.9
COC(=O)CCN1C(=O)/C(=C\c2cc(Br)c(O)c(OC)c2)SC1=S	53.8
CCOc1ccccc1N(CC(=O)NC1CCCCC1)S(=O)(=O)c1ccccc1	10.8
O=C1NC(=O)N(c2ccc3c(c2)OCO3)C(=O)/C1=C/c1ccc(I)o1	17.5
O=C(Nc1ccc2c(c1)OCO2)c1ccccc1[N+](=O)[O-]	-5.9

###

The compounds listed here are annotated with their displacement.
target: Bcl-2-like protein 10 (Homo sapiens); experiment: TR3 peptide-Bcl-B binding displacers, biochemical primary FP assay, phenotype converters (AID 1240); settings: GST-Bcl-B / FITC-TR3 peptide fluorescence polarization; stronger effect = higher value; compound at 3.75 mg/L;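 note: 0% = Bcl-B with tracer peptide and DMSO and 100% = tracer peptide lacking Bcl-B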
The campaign covered roughly 50,000 compounds. About 800 (1.6%) showed an effect of 50% or more. The list comes from a sample in which strong results are over-represented; it also holds close analogues and randomly drawn compounds.

Compound	displacement (%)
O=C1NC(=O)N(c2ccccc2)C(=O)/C1=C\c1ccc(-c2cccc([N+](=O)[O-])c2)o1	39.3
COc1cccc(C2NC(=S)NC(C)=C2C(=O)Nc2cccc(Cl)c2)c1 (stereo unspecified)	-14
Cc1no[n+]([O-])c1COc1cccc(/C=C2\SC(=S)NC2=O)c1	-27.6
CCN(CC)C(=O)Cc1ccc2c3c(cccc13)CC2	12.7
CCOc1cc(C=C2C(=O)NC(=O)NC2=O)ccc1OCc1ccccc1	33.7
COc1cc(C=C2C(=O)NC(=O)NC2=O)ccc1OCc1c(C)no[n+]1[O-]	-3.9
COc1ccc(C=C2C(=O)N(C)C(=O)N(C)C2=O)cc1O	-7.9
COc1ccccc1C/C(N)=N/OC(=O)COc1ccc2ccccc2c1	5.6
Cc1ccc(-n2cc(/C=c3\sc4nc5cc(C)c(C)cc5n4c3=O)cn2)cc1C	-8.9
COc1ccc(N2C(=O)NC(=O)/C(=C/c3ccc(-c4cccc([N+](=O)[O-])c4)o3)C2=O)cc1	-12.5
Cc1no[n+]([O-])c1COc1ccc(/C=C2\SC(=S)NC2=O)cc1	-27.5
CCOc1cc(C=C2C(=O)NC(=O)NC2=O)ccc1OCc1c(C)no[n+]1[O-]	108
COc1ccc(NC(=O)c2ccc(S(=O)(=O)N3CCOCC3)cc2)c2ccccc12	-8.9
Cc1ccc(Cc2cnc(NC(=O)c3cccc([N+](=O)[O-])c3)s2)cc1	26.3
O=C1NC(=O)N(c2ccccc2)C(=O)/C1=C\c1ccc(-c2ccc([N+](=O)[O-])cc2)o1	130
O=C1NC(=O)N(c2ccc(Cl)cc2)C(=O)/C1=C\c1ccc(-c2ccc(C(=O)O)c(Cl)c2)o1	-7.8
COc1ccccc1CNC(=O)c1cccc(Cl)c1	-6.1
Cc1ccc(-n2cc(C=C3C(=O)NC(=O)NC3=O)cn2)cc1C	110
COc1cc(/C=C2/SC(=S)N(C)C2=O)ccc1OCc1cccc2ccccc12	6.6
Cc1ccc(-n2c(C)cc(/C=C3\NC(=O)NC3=O)c2C)cc1C	11.1
C=C1CC(C)OC(c2ccccc2O)C1 (stereo unspecified)	-4.4

###

target: Bcl-2-like protein 10 (Homo sapiens); assay: TR3 peptide-Bcl-B binding displacers, biochemical primary FP assay, phenotype converters (AID 1240); settings: GST-Bcl-B / FITC-TR3 peptide fluorescence polarization; stronger effect = higher value; compound at 3.75 mg/L;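 note: 0% = Bcl-B with tracer peptide and DMSO and 100% = tracer peptide lacking Bcl-B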
Hit rate of the full screen: of about 50,000 compounds, about 800 (1.6%) showed an effect of 50% or more. The sample holds strong results, similar compounds and a random draw of the others, so the mix is not that of the screen.
Listing: displacement of selected compounds

Compound	Value Unit	displacement
Cc1ccc(S(=O)(=O)Nc2cc(C(C(=O)OC(C)C)C(=O)C(F)(F)F)c(O)c3ccccc23)cc1 (stereo not given)	%	-5.6
O=c1c(-c2cccs2)[n+]([O-])c2ccccc2n1O	%	69.4
O=c1oc2ccc(Br)cc2cc1-c1csc(-c2cc3cc([N+](=O)[O-])ccc3oc2=O)n1	%	-5.4
CCc1ccc(NC(=O)CC2Nc3ccccc3NC2=O)cc1 (stereo not given)	%	-35.7
CC(=O)C(C(C)=O)c1cc(NS(=O)(=O)c2ccc(C)cc2)c2ccccc2c1O	%	3.6
Cc1ccc(-c2nc(-c3cc4cc([N+](=O)[O-])cc(Br)c4oc3=O)cs2)c(C)c1	%	95.2
CCOC(=O)c1c(NC(=O)CC2Nc3ccccc3NC2=O)sc2c1CCCC2 (stereo not given)	%	130
O=C(NC1CCCCC1)c1ccc([N+](=O)[O-])cc1	%	0.7
COc1cc(C2OCC3(CO)C(C)C=C(C)C2C3C)ccc1O (stereo not given)	%	16.4
Cc1ccc(/C(O)=C2\C(=O)C(=O)N(c3nncs3)C2c2cccc(Cl)c2)cc1 (stereo not given)	%	12.7
